Numbers sourced from ChEMBL document CHEMBL3097986.

# Assay System: RAC-alpha serine/threonine-protein kinase (Homo sapiens)
# Protocol Text: Inhibition of AKT1 in human PC3 cells using GSK-3beta fusion protein as substrate at 10 nM after 1 hr by Western blotting analysis relative to control
# Assay type: cell-based
# Condition Details: PC-3
inhibition listing for selected compounds.
Provide the measurement as a number trailed by its unit.

Below are worked cases with known answers.
Compound	Assay System	inhibition
COC(=O)c1cc2c(OC[C@H](N)Cc3ccccc3)ccc(OC)c2n1C	RAC-alpha serine/threonine-protein kinase (Homo sapiens)	38.9%
COC(=O)c1cc2c(OC[C@H](N)Cc3c[nH]c4ccccc34)ccc(Cl)c2n1C	RAC-alpha serine/threonine-protein kinase (Homo sapiens)	58.4%
COC(=O)c1cc2c(OC[C@H](N)Cc3ccccc3)ccc(Cl)c2n1C	RAC-alpha serine/threonine-protein kinase (Homo sapiens)	60.3%

Consider now this further compound.
Query block: Return inhibition (reported value) for this compound: CCn1c(-c2nonc2N)nc2c(C#CC(C)(C)O)ncc(OC[C@H]3CCCNC3)c21 [GSK-690693]
Result block: 58.3%
